molecular target: CDK1/CycB (Homo sapiens (Human)); assay: LANCE Ultra kinase activity inhibition assay, CDK1/CycB; type: biochemical; details: ATP 4 μM, highest compound concentration 10 μM
Sequence (P06493 whole entry): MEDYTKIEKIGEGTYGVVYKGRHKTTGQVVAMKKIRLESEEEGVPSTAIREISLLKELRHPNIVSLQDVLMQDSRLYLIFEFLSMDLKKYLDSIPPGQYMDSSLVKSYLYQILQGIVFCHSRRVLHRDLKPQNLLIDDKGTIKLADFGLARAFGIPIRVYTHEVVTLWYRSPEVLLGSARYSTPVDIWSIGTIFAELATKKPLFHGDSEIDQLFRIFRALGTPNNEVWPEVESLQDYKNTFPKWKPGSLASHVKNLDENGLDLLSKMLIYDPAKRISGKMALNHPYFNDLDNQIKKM
Sequence (P14635 whole entry partner): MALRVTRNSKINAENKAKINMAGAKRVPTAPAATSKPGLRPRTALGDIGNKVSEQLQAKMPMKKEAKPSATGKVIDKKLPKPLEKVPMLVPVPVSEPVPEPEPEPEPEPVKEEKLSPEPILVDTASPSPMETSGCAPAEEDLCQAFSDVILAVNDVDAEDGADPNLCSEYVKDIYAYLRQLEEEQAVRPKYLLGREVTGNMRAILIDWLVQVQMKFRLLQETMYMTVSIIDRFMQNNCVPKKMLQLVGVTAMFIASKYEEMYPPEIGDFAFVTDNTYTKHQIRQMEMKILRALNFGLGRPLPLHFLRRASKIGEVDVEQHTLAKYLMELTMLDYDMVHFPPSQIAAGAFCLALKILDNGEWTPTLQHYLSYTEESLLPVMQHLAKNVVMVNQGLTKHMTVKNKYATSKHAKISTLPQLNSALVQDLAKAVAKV
ENDPOINT_LABEL: IC50 (µM)

A. C=CC(C)(C)c1cc(N[C@H]2CC[C@H](N)C2)n2nccc2n1 [Compound Z-18]
B. CCc1cnn2c(N[C@H]3CC[C@H](N)C3)cc(C(C)C3CC3)nc12 (stereo partly shown) [Compound Z-20]
Query: Given the listed records, identify the one among A and B with higher IC50. Selection: enter the item's label.
Result: A

====

Target: CDK2/CycA (Homo sapiens (Human))
Assay: LANCE Ultra kinase activity inhibition assay, CDK2/CycA
Assay type: biochemical
Settings: ATP 10 μM, highest compound concentration 10 μM
Experimental: In the following LANCE Ultra test methods, kinase reagents were purchased from Carna Bioscience, reaction substrates and detection reagents were purchased from PerkinElmer, and the remaining reagents were purchased from Thermo scientific. […] After the test solution was added, the solution was placed on a shaker and continually incubated at room temperature for 1 h in the dark. […] The inhibition rate was calculated as below. […]
ENDPOINT_LABEL: IC50 (µM)

Some solved cases for reference:
MOLECULE: CC(=N)N[C@H]1CC[C@H](Nc2cc(C(C)C3CC3)nc3c(F)cnn23)C1 (stereo partly drawn) [Compound Z-72]
STUDY_SYSTEM: CDK2/CycA (Homo sapiens (Human))
IC50 / µM: 6.57
--
MOLECULE: Cc1cnn2c(N[C@H]3CC[C@H](N)C3)cc(C(C)C3CC3)nc12 (stereo partly drawn) [Compound Z-32]
STUDY_SYSTEM: CDK2/CycA (Homo sapiens (Human))
IC50 / µM: 0.967
--
MOLECULE: C[C@H](c1cc(N[C@H]2CC[C@H](N)C2)n2nccc2n1)C1(C)CC1 [Compound Z-27-P2]
STUDY_SYSTEM: CDK2/CycA (Homo sapiens (Human))
IC50 / µM: 2.78

P. CC[C@@H](c1cc(N[C@H]2CC[C@H](N)C2)n2ncc(C)c2n1)C1CC1 [Compound Z-30-P2]
Q. Cc1cnn2c(N[C@H]3CC[C@H](N)C3)cc(C(C)C3(C)CC3)nc12 (stereo partly drawn) [Compound Z-26]
Query: Quick one: lower IC50, P or Q ? Mark your selection by writing its label.
Result: P
(P: 4.91 µM, Q: 7.06 µM)
